B1: library; numbered along this chain (parent)
chain: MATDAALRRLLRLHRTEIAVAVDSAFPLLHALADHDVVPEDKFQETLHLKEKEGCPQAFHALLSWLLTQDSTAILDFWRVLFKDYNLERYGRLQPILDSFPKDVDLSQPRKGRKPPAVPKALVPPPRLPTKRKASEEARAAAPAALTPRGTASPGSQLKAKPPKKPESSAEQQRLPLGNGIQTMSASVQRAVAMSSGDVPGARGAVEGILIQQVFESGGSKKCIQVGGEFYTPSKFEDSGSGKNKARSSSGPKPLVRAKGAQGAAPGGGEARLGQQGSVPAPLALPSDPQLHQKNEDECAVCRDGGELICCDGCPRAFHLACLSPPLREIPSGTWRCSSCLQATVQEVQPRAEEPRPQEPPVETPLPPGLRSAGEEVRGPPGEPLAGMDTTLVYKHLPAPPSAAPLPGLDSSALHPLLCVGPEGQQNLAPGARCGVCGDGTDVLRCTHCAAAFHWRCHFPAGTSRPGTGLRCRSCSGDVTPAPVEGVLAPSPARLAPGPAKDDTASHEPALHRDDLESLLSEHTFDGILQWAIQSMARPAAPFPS

Variants of: B1
PROTOCOL_NOTES: AIRE transcriptional activation functional score (insulin promoter-GFP; nonsense median 0, synonymous median 1) (normalised score); higher = higher AIRE activity (more reporter activation)
EXPERIMENTAL_CONTEXT: with insulin promoter-GFP reporter in HEK293
REPORTED_ENDPOINT: AIRE transcriptional activation functional score

> print(dat)
    mutation  obs.value
 1     V479N       1.08
 2     E376K       1.15
 3     T130P       1.36
 4      R12I     -0.464
 5     G155C      0.555
 6     L320C       0.84
 7     P115L        1.2
 8      W65D      -1.55
 9     E270L       1.41
10     G218C      0.887
11     L106N      0.233
12     A205H       1.58
13     Q530C    -0.0453
14     P331A       1.19
15     G218M       1.01
16      G54T      -1.14
17     E136C       1.22
18     E354H        1.1
19      F43H      -1.42
20     Q172D       1.14
21     R203S      0.794
22     P357G      0.884
23     E423C      0.459
24     C434P      0.202
25     P384E       1.39
26     D410Q        1.2
27     A451W      0.516
28     A152G      0.815
29     L417K      0.833
30     L417G      0.679
31     R174S      0.758
32       A6F       1.43
33     G267A        0.9
34     E167C       1.33
35     D288T      0.903
36      L97S     -0.186
37      A73R       1.26
38     E171W       1.93
39     A193V      0.147
40     I224M       1.07
41     P119E       1.37
42     A537I      0.231
43     A140F       1.71
44      S99Q     -0.179
45     A540N       1.02
46     P380D      0.476
